# ASSAY_COMMENT: Cytotoxicity against dog MDCK cells assessed as reduction in cell viability incubated for 72 hrs by CCK-8 assay
# Assay type: toxicity, cell-based, Canis lupus familiaris
Reported CC50 at 72 h by item:

SMILES_TEXT: Cc1ncnc2c1c(/C=C/c1ccccn1)cn2[C@@H]1O[C@H](CO)[C@@H](O)[C@@]1(C)F
CC50 at 72 h: > 100 µM
//
SMILES_TEXT: Cc1ncnc2c1c(/C=C/c1cccs1)cn2[C@@H]1O[C@H](CO)[C@@H](O)[C@@]1(C)F
CC50 at 72 h: > 100 µM

* * *

# Test system: Hepatitis C virus
# ASSAY_COMMENT: Antiviral activity against Hepatitis C virus infected in human Huh-7 cells assessed as reduction in viral infection incubated for 72 hrs by qRT-PCR analysis
# Type: functional, organism-based, Hepacivirus hominis
# TEST_CONDITIONS: Huh-7, 72 h

SMILES_TEXT: CC(C)OC(=O)[C@H](C)N[P@](=O)(OC[C@H]1O[C@@H](n2ccc(=O)[nH]c2=O)[C@](C)(F)[C@@H]1O)Oc1ccccc1
EC50 (nM): 92
